Molecular target: human recombinant HDAC6 (Homo sapiens, UniProt Q9UBN7)
Construct: purchased Calbiochem 382180
Sequence (Q9UBN7 whole entry): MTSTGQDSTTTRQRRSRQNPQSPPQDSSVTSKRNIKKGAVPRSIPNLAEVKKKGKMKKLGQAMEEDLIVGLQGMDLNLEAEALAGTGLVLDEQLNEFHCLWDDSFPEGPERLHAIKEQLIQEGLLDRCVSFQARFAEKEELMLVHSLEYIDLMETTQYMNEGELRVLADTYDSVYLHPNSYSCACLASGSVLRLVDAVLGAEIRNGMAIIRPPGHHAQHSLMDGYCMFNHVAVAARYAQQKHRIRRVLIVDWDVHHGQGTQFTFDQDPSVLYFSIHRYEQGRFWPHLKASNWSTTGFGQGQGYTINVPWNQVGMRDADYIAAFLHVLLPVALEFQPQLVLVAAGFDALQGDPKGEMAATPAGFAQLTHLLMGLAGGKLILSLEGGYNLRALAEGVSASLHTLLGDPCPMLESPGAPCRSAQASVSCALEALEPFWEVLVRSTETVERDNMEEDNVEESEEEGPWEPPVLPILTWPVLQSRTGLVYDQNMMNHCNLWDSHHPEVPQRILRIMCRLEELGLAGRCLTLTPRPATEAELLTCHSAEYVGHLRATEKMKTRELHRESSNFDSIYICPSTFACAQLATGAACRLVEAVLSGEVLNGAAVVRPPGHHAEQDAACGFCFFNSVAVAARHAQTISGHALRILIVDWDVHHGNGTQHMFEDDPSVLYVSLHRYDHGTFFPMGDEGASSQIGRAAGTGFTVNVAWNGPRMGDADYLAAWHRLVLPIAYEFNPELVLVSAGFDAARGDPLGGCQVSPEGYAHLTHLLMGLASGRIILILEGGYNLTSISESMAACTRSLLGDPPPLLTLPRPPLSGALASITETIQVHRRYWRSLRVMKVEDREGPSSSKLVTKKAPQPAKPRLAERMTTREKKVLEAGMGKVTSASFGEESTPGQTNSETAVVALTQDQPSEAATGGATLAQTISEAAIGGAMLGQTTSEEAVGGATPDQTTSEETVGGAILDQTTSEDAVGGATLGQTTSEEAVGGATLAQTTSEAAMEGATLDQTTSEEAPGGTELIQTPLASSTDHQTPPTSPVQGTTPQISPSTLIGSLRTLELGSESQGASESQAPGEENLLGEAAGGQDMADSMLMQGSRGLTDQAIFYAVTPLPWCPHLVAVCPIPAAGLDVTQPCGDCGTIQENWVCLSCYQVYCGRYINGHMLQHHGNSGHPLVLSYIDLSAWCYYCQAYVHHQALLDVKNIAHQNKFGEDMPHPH
Assay: HDAC6 enzyme activity inhibition assay (HDAC Fluorimetric Drug Discovery Kit)
Type: biochemical
Conditions: human recombinant HDAC6, same protocol as HDAC1; read-out: HDAC6
Measurement label: IC50 (nM)

Below, 2 compounds whose answers are already recorded.
[
  {
    "Item smiles": "O=C(N1CCOCC1)N(Cc1ccc(-c2nnc(C(F)F)o2)cc1F)c1ccc(F)cc1",
    "Reported value": 26
  },
  {
    "Item smiles": "Cc1ccccc1N(Cc1ccc(-c2nnc(C(F)(F)F)o2)cn1)C(=O)N1CCN(C)CC1",
    "Reported value": 173
  }
]

A. CN1CCN(C(=O)N(CCc2ccccc2)Cc2ccc(-c3nnc(C(F)F)o3)cc2F)CC1
B. O=C(N1CCS(=O)(=O)CC1)N(Cc1ccc(-c2nnc(C(F)F)o2)cc1)c1ccccc1F
C. O=C(N1CCS(=O)(=O)CC1)N(Cc1ccc(-c2nnc(C(F)F)o2)cc1F)c1ccc(Cl)cc1
Reorder the items by IC50, least to greatest. Answer by listing the labels in the order asked for.
B, C, A
(B: 36 nM, C: 57 nM, A: 155 nM)

###

Biological target: human recombinant HDAC6 (Homo sapiens, UniProt Q9UBN7)
Construct: purchased Calbiochem 382180
Assay: HDAC6 enzyme activity inhibition assay (HDAC Fluorimetric Drug Discovery Kit)
Format: biochemical
Settings: human recombinant HDAC6, same protocol as HDAC1; read-out: HDAC6
Measurement label: IC50 (nM)

[
  {
    "Molecule": "Cc1ccccc1N(Cc1ccc(-c2nnc(C(F)F)o2)cn1)C(=O)N1CCN(C)CC1 [Compound 21632]",
    "IC50 / nM": 41
  },
  {
    "Molecule": "COc1ccccc1N(Cc1ccc(-c2nnc(C(F)(F)F)o2)cc1F)C(=O)N1CCS(=O)(=O)CC1 [Compound 21479]",
    "IC50 / nM": 60
  },
  {
    "Molecule": "CCN1CC2(CCN(C(=O)N(Cc3ccc(-c4nnc(C(F)F)o4)cc3F)c3ccc4cnn(C)c4c3)CC2)C1 [Compound 21765]",
    "IC50 / nM": 114
  },
  {
    "Molecule": "O=C(N1CCS(=O)(=O)CC1)N(Cc1ccc(-c2nnc(C(F)(F)F)o2)cc1F)c1ccc(-c2cccnc2)cc1 [Compound 21517]",
    "IC50 / nM": 93
  },
  {
    "Molecule": "O=C(N1CCOCC1)N(Cc1ccc(-c2nnc(C(F)(F)F)o2)cc1)c1cccc(F)c1 [Compound 21407]",
    "IC50 / nM": 140
  },
  {
    "Molecule": "CN1CCC(c2ccc(N(Cc3ccc(-c4nnc(C(F)F)o4)cc3F)C(=O)N3CCS(=O)(=O)CC3)cc2)CC1 [Compound 21970]",
    "IC50 / nM": 1550
  },
  {
    "Molecule": "O=C(N1CCS(=O)(=O)CC1)N(Cc1ccc(-c2nnc(C(F)(F)F)o2)cc1)c1ccccc1 [Compound 21361]",
    "IC50 / nM": 67.8
  },
  {
    "Molecule": "O=C(NCCN1CCC(Cc2ccccc2)CC1)N(Cc1ccc(-c2nnc(C(F)F)o2)cc1F)c1ccccc1 [Compound 22004]",
    "IC50 / nM": 412
  }
]

a. Cc1cccc(N(Cc2ccc(-c3nnc(C(F)(F)F)o3)cc2)C(=O)N2CCS(=O)(=O)CC2)c1 [Compound 21442]
b. CCN1CCN(C(=O)N(Cc2ccc(-c3nnc(C(F)F)o3)cn2)c2ccc(F)c(Cl)c2)CC1 [Compound 21629]
Returns: the label, a or b , whose recorded IC50 is the lower number. Give the chosen item's label as your response.
b

###

Target: human recombinant HDAC6 (Homo sapiens, UniProt Q9UBN7)
Construct: purchased Calbiochem 382180
Test: HDAC6 enzyme activity inhibition assay (HDAC Fluorimetric Drug Discovery Kit)
Assay type: biochemical
Conditions: human recombinant HDAC6, same protocol as HDAC1; read-out: HDAC6
Measurement label: IC50 (µM)

Below, 3 compounds whose answers are already recorded.
[
  {
    "Compound": "CCOC(=O)CN1[C@H](C)CN(C(=O)N(Cc2ccc(-c3nnc(C(F)(F)F)o3)cc2)c2ccccc2)C[C@@H]1C [Compound 21404]",
    "Reported value": 0.247
  },
  {
    "Compound": "CS(=O)(=O)N1CCC2(CC1)CN(C(=O)N(Cc1ccc(-c3nnc(C(F)F)o3)cc1F)c1ccccc1)C2 [Compound 21501]",
    "Reported value": 0.028
  },
  {
    "Compound": "CC(C)C(=O)N1CCN(C(=O)N(Cc2ccc(-c3nnc(C(F)(F)F)o3)cc2)c2ccccc2)CC1 [Compound 21365]",
    "Reported value": 0.145
  }
]

I. O=C(NCCN1CCCN(Cc2ccccc2)CC1)N(Cc1ccc(-c2nnc(C(F)F)o2)cc1F)c1ccccc1 [Compound 22000]
II. O=C(N1CCS(=O)(=O)CC1)N(Cc1ccc(-c2nnc(C(F)F)o2)cn1)c1cccc(F)c1 [Compound 21830]
III. CCN1CCN(C(=O)N(Cc2ccc(-c3nnc(C(F)(F)F)o3)cc2)c2cccc(OC)c2)CC1 [Compound 21871]
IV. O=C(NCCN1CCOCC1)N(Cc1ccc(-c2nnc(C(F)F)o2)cc1F)c1ccccc1 [Compound 21982]
Reorder the items by IC50, least to greatest. Answer by listing the labels in the order asked for.
II, IV, I, III
(II: 0.032 µM, IV: 0.104 µM, I: 0.165 µM, III: 0.321 µM)

###

Target: human recombinant HDAC6 (Homo sapiens, UniProt Q9UBN7)
Construct: purchased Calbiochem 382180
Experiment: HDAC6 enzyme activity inhibition assay (HDAC Fluorimetric Drug Discovery Kit)
Type: biochemical
Settings: human recombinant HDAC6, same protocol as HDAC1; read-out: HDAC6
pIC50: −log10 of the molar value.
Measurement label: pIC50

Below, 5 molecules whose answers are already recorded.
[
  {
    "Molecule": "O=C1CCN(CCNC(=O)N(Cc2ccc(-c3nnc(C(F)F)o3)cc2F)c2ccccc2)CC1 [Compound 21991]",
    "pIC50": 7.08
  },
  {
    "Molecule": "C[C@@H]1CN(C(=O)N(Cc2ccc(-c3nnc(C(F)(F)F)o3)cc2)c2ccccc2)C[C@H](C)N1S(C)(=O)=O [Compound 21388]",
    "pIC50": 6.62
  },
  {
    "Molecule": "CN1CCCN(C(=O)N(Cc2ccc(-c3nnc(C(F)(F)F)o3)cc2)c2ccccc2)CC1 [Compound 21379]",
    "pIC50": 7.12
  },
  {
    "Molecule": "O=C(N1CCS(=O)(=O)CC1)N(Cc1ccc(-c2nnc(C(F)F)o2)cn1)c1ccccc1F [Compound 21625]",
    "pIC50": 7.62
  },
  {
    "Molecule": "CCN1CCN(C(=O)N(Cc2ccc(-c3nnc(C(F)(F)F)o3)cc2)c2ccccc2)CC1 [Compound 21346]",
    "pIC50": 6.76
  }
]

A. O=C(N1CCN(C2COC2)CC1)N(Cc1ccc(-c2nnc(C(F)F)o2)cn1)c1cccc(F)c1 [Compound 21938]
B. O=C(N1CCOCC1)N(Cc1ccc(-c2nnc(C(F)(F)F)o2)cc1)c1cccc(C(F)(F)F)n1 [Compound 21408]
Returns: the label, A or B , whose recorded pIC50 is the lower number. Give the chosen item's label as your response.
B
(B: 6.15, A: 7.09)

###

Molecular target: human recombinant HDAC6 (Homo sapiens, UniProt Q9UBN7)
Construct: purchased Calbiochem 382180
Experiment: HDAC6 enzyme activity inhibition assay (HDAC Fluorimetric Drug Discovery Kit)
Type: biochemical
Details: HDAC6 over HDAC1
Measurement label: HDAC6 selectivity (fold)

[
  {
    "Molecule": "O=C(N1CCOCC1)N(Cc1ccc(-c2nnc(C(F)(F)F)o2)cc1F)c1ccc(F)c(Cl)c1 [Compound 21930]",
    "Tgt": "human recombinant HDAC6 (Homo sapiens, UniProt Q9UBN7)",
    "Reported value": 35
  }
]

I. O=C(N1CCS(=O)(=O)CC1)N(Cc1ccc(-c2nnc(C(F)F)o2)cc1F)c1ccc(CN2CCN(Cc3ccccc3)CC2)cc1 [Compound 21900]
II. CN1CCN(C(=O)N(Cc2ccc(-c3nnc(C(F)F)o3)cc2F)c2ccc(F)c(Cl)c2)CC1 [Compound 21565]
Identify the entry with the larger HDAC6 selectivity (fold). Options: I and II Give the chosen item's label as your response.
II
(II: 625 fold, I: 53 fold)

###

Molecular target: human recombinant HDAC1 (Homo sapiens)
Construct: purchased Enzo Life Science BML-SE456
Sequence (Q13547 whole entry): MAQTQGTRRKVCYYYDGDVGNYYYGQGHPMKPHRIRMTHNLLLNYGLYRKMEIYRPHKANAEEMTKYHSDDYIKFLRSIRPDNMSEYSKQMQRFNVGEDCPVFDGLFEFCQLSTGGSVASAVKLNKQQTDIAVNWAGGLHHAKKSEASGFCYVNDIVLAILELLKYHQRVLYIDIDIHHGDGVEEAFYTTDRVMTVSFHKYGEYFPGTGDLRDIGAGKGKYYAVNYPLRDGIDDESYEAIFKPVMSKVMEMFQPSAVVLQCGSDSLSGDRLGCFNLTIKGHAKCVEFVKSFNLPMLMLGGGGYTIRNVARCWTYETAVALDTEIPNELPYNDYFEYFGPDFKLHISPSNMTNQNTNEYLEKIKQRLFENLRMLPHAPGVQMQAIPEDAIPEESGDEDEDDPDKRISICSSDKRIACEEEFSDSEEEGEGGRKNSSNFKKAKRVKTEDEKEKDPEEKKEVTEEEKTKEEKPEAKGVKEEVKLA
Assay: HDAC1 enzyme activity inhibition assay (HDAC Fluorimetric Drug Discovery Kit)
Type: biochemical
Settings: human recombinant HDAC1, Fluor de Lys substrate 10 μM, 30° C. 60 minutes
Description: In order to examine the HDAC6 selectivity of the compounds of formula I of the present invention by HDAC1 and HDAC6 enzymatic activity inhibition assays, an experiment was performed using a conventional substance as a control. HDAC enzyme activity was measured using a HDAC Fluorimetric Drug Discovery Kit (BML-AK511, 516, Enzo Life Science). […] Based on the resulting values, each IC5, value was calculated using GraphPad Prism4.0 program.
pIC50: −log10 of the molar value.
Measurement label: pIC50

Below, 3 compounds whose answers are already recorded.
[
  {
    "Item smiles": "Cn1ncc2ccc(-c3cccc(N(Cc4ccc(-c5nnc(C(F)(F)F)o5)cc4)C(=O)N4CCS(=O)(=O)CC4)c3)cc21",
    "pIC50": 5.57
  },
  {
    "Item smiles": "CS(=O)(=O)c1ccc(N(Cc2ccc(-c3nnc(C(F)(F)F)o3)cc2)C(=O)N2CCOCC2)cc1",
    "pIC50": 5.13
  },
  {
    "Item smiles": "O=C(N1CCOCC1)N(Cc1ccc(-c2nnc(C(F)F)o2)cn1)c1ccc(Cl)cc1",
    "pIC50": 4.15
  }
]

P. O=C(N1CCS(=O)(=O)CC1)N(Cc1ccc(-c2nnc(C(F)F)o2)cn1)c1ccc(F)cc1
Q. O=C(N1CCS(=O)(=O)CC1)N(Cc1ccc(-c2nnc(C(F)F)o2)cc1F)c1ccc(CN2CCN(C3COC3)CC2)cc1
Returns: the label, P or Q , whose recorded pIC50 is the lower number. Give the chosen item's label as your response.
P
(P: 4.33, Q: 4.55)

1. COc1cccc(N(Cc2ccc(-c3nnc(C(F)(F)F)o3)cc2)C(=O)N2CCS(=O)(=O)CC2)c1
2. O=C(N1CCOCC1)N(Cc1ccc(-c2nnc(C(F)(F)F)o2)cn1)c1ccc(Cl)cc1
Identify the entry with the larger pIC50. Options: 1 and 2 Give the chosen item's label as your response.
1
(1: 5.60, 2: 4.38)
